Assay: Determination of stability in aqueous solution
Assay type: physicochemical
Conditions: pH 7.4, 37° C., 0.5M sodium phosphate; read-out: Half-value period of disappearance due to hydrolysis (t1/2) (converted)
Protocol: Determination of Stability in Aqueous Solution These compounds were unstable in a neutral or alkaline aqueous solution mainly due to the hydrolysis reaction of the N-acetyl or N-benzoyl group. […] The decomposition rate constant under conditions (pH 7.4, 37° C.) where they were relatively easily decomposed was determined and the stabilities of the compounds were compared with one another. […]
Label Satisfied when half-life < 40 h; otherwise Not satisfied.

Examples from the recorded data:
molecule="CCCCCCCCCCCCCCCCCCOc1c(OC)cc(COCC(COC(=O)N(Cc2cccc[n+]2CC)C(=O)c2ccccc2OC)OC)cc1OC (stereo not drawn)" assigned_category=Satisfied
molecule="CCCCCCCCCCCCCCCCCCNS(=O)(=O)c1ccc(CNC(=O)OCC(COC(=O)N(Cc2cccc[n+]2CC)C(=O)c2ccccc2OC)OC)cc1 (stereo not drawn)" assigned_category=Satisfied
molecule="CCCCCCCCCCCCCCCCCCOC(=O)N1CCN(C(=O)OCC(COC(=O)N(Cc2cccc[n+]2CC)C(=O)c2ccccc2OC)OC)CC1 (stereo not drawn)" assigned_category=Satisfied
molecule="CCCCCCCCCCCCCCCCCCNC(=O)OCCCNC(=O)OCC(COC(=O)N(Cc1cccc[n+]1CC)C(=O)c1ccccc1OC)OC (stereo not drawn)" assigned_category=Satisfied
molecule="CC[n+]1ccccc1CN1C(=O)CN(CC(COCc2cc(OC)c(OC)c(OC)c2)OC)C1=O (stereo not drawn)" assigned_category="Not satisfied"

Here's an entry: CCCCCCCCCCCCCCCCCCNC(=O)OC1CCN(C(=O)OCC(COC(=O)N(Cc2cccc[n+]2CC)C(=O)c2ccccc2OC)OC)CC1 (stereo not drawn) . Is its half-life below 40 h?
Satisfied
